Test system: MALME-3M melanoma
Experiment: NCI-60 one-dose screen, 48 h (100 = growth as untreated, 0 = no growth, -100 = all killed)
Settings: 10 µM unless noted
Compounds without any hit were thinned out: in the full panel of roughly 83,000, 20% have a hit.
So basically: growth at 40% or higher? That is T. Lower than 40%? That is F.

Completed entries (count: 4):
CCCCCc1ccc(C)cc1OC(=O)CCl: T
CC1CCC(n2cnc3c(Cl)ncnc32)O1 (stereo unspecified): T
O=C(COc1ccc(/C=C2\Cc3ccc(Cl)cc3C2=O)cc1)Nc1nccs1: T
CN(C)C/C=C/C(=O)Nc1cc2c(Nc3ccc(F)c(Cl)c3)ncnc2cc1O[C@H]1CCOC1: F

Qu. Check this compound for growth at or above 40%: "CC(=O)c1c(C)c2cnc(Nc3ccc(N4CCNCC4)cn3)nc2n(C2CCCC2)c1=O"
Ans. F

Qu. I'd appreciate it if you could say whether "CC(C)n1c(NCCc2ccc(O)c(O)c2)nc2c1c(=O)n(C)c(=O)n2C" has growth at least equal to 40%.
Ans. T
